Test: probe aNOTCH2 binding on compound microarray – biochemical, small-molecule microarray, 635/667 nm fluorescence, primary screen (AID 1121);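 further: score merges feature fluorescence read at 667 nm with its signal to noise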
Settings: higher = more signal
quantity.kind: composite z-score
Just the number, please.

Worked cases, answers included:
Ask: Given Cn1c2c(c3ccccc31)C(=O)C1NC2C=CC1(C)C(=O)OCc1ccccc1 (stereo unspecified) , respond with its composite z-score.
Reply: -0.166

Ask: Give the reported composite z-score for this molecule. `Cc1ccc(N2C(=O)c3ccccc3[C@@H](C(=O)NC(C)C)[C@@H]2c2ccc(CO)cc2)nc1`
Reply: -0.152

Ask: Please supply the value of reported composite z-score for the item `O=C1O[C@H](c2ccccc2)[C@H](c2ccccc2)N2[C@H]1[C@@H](C(=O)Nc1nc3ccccc3s1)[C@]1(C(=O)Nc3ccc(C#CC4=CCCCC4)cc31)[C@H]2c1ccc(OCCO)cc1`
Reply: -0.0144

Ask: Read off the recorded composite z-score for CCN(CC)c1ccc(N2CC=CC34O[C@@H]5/C=C\CCCOC(=O)C5[C@H]3C(=O)N(CCCO)[C@@H]4C2=O)cc1 (stereo partly specified)
Reply: -0.104

Ask: Retrieve composite z-score measured for CN1C(=O)C2C=CC(C(O)C(C)(C)C)N(Nc3ccccc3)C2C1=O (stereo unspecified) and print it.
Reply: -0.029

Others:
Ask: Supply recorded composite z-score for `O=C1O[C@H](c2ccccc2)[C@H](c2ccccc2)N2[C@H]1[C@@H](C(=O)NC[C@H](O)c1ccccc1)[C@]1(C(=O)Nc3ccc(C#CC4(O)CCCCCC4)cc31)[C@H]2c1ccccc1OCCO` here.
Reply: 0.0785

Ask: Return the recorded composite z-score value; entry: CC(c1ccccc1)C(O)C1C=CC2C(=O)N(Cc3ccccc3)C(=O)C2N1n1cnnc1 (stereo unspecified)
Reply: -0.046

Ask: Retrieve composite z-score measured for `CO[C@H]1O[C@H](CO)[C@@H](OC(=O)Nc2ccccc2-c2ccccc2)[C@H](OC(=O)Nc2ccccc2-c2ccccc2)[C@H]1OC(=O)Nc1ccccc1-c1ccccc1` and print it.
Reply: -0.0759

Ask: Quick one: give measured composite z-score for `Cc1ccc(S[C@]2(C(=O)NCCCN(C)C)CC(=O)N(Cc3ccccc3)[C@@H]2c2ccc(CO)cc2)cc1`
Reply: 0.027

Ask: Note composite z-score for the molecule shown: `Cc1ccc(S[C@]2(C(=O)NCCN3CCOCC3)CC(=O)N(C3CCCCC3)[C@@H]2c2ccc(CO)cc2)cc1`
Reply: -0.0621

====

Attribute: composite z-score
Target: Epidermal growth factor receptor (Homo sapiens) (UniProt P00533)
Sequence (P00533 whole entry, looked up): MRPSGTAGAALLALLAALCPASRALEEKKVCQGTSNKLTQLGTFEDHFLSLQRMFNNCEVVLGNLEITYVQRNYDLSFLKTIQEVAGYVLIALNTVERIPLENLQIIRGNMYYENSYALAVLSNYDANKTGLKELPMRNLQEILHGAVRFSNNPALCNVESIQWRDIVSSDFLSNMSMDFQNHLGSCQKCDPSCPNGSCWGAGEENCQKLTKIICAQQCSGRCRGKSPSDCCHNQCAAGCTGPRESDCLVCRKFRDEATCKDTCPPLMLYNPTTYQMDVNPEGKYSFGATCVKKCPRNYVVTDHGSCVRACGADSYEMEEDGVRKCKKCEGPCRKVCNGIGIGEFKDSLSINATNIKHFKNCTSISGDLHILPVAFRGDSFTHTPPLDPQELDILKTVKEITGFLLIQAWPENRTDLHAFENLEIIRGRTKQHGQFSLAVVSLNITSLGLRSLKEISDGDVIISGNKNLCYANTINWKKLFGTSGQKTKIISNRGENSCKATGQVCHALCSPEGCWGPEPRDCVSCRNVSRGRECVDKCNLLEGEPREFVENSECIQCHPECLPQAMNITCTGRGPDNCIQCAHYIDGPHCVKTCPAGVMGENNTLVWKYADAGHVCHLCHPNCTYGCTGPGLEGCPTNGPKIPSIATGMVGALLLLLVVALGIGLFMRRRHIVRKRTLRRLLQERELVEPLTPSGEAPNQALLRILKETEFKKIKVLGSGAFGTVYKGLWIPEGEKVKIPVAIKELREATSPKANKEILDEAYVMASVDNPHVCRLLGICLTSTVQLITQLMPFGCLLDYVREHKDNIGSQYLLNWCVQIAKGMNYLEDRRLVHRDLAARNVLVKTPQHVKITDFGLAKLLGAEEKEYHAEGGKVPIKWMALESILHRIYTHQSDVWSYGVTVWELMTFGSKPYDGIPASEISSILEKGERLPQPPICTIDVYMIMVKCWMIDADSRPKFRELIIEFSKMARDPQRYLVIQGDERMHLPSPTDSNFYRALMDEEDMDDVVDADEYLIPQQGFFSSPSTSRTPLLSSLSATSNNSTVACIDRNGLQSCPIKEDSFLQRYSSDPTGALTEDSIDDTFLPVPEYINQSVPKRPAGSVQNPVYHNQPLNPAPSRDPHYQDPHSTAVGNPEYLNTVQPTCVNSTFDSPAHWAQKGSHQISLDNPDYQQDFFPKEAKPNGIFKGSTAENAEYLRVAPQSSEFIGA
Test: compounds binding epidermal growth factor receptor – biochemical, small-molecule microarray, 635 nm fluorescence, primary screen (AID 1104);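 further: score merges 667 nm emission intensity with spot signal to noise over triplicate slides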
Details: EGFR binding, higher = more signal
API note: the answer field is a bare number with no unit suffix.

A selection of reference data follows.
Ask: Using the record for `C=CCOC(=O)[C@H]1[C@@H]2C(=O)O[C@@H](c3ccccc3)[C@@H](c3ccccc3)N2[C@@H](c2ccc(OCCOC(=O)[C@H]3C[C@H]4C(=O)N[C@@H](CCCC[N+](C)(C)C)C(=O)N4[C@H]3c3ccc(O)cc3)cc2)[C@]12C(=O)Nc1ccccc12` , state its measured composite z-score.
Reply: -0.229

Ask: Tell me measured composite z-score for `CCCC[C@H]1OB(O)C[C@H]2C1=C(COc1ccccc1)C[C@H]1C(=O)N(Cc3ccccc3)C(=O)[C@H]12` please.
Reply: -0.248

Ask: Provide one value: measured composite z-score of `COCCn1c(C(=O)N(C)C)cc2c1C[C@H]1CN(C(=O)c3ccccc3)[C@@](Cc3ccc(F)cc3)(C(=O)OC)[C@@H]21`
Reply: -0.0331

New cases:
Ask: In one line, give reported composite z-score of the entry `COCCOC(=O)N1C(=O)[C@@]2(c3cc(C#Cc4ccc(OC)cc4)ccc31)[C@H](c1ccc(OCCO)cc1)N1[C@H](c3ccccc3)[C@H](c3ccccc3)OC(=O)[C@H]1[C@@H]2C(=O)N1CCc2cc(OC)c(OC)cc2C1` .
Reply: 0.463

Ask: Report measured composite z-score; entry is `COC(=O)[C@@]1(Cc2ccc(F)cc2)[C@H]2c3cc(C(=O)N(C)C)n(CCc4c[nH]c5ccc(OC)cc45)c3C[C@H]2CN1C(=O)c1ccccc1`
Reply: -0.446

Ask: Provide one value: measured composite z-score of `[N-]=[N+]=NCc1ccccc1C[C@]1(C(=O)NCc2ccccc2)COC(c2ccc(OCCCO)cc2)=N1`
Reply: 0.0245

====

Assay: plasmodial surface anion channel blockers, osmotic lysis – cell-based, P. falciparum Indochina, OD700, 2 h, primary screen (AID 1155);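 further: lysis reports solute entry through the parasite surface anion channel PSAC; channel blockers reduce lysis of infected cells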
Details: P. falciparum Indochina infected erythrocytes, higher = more signal, called active from +8 up or from −8 down
quantity.kind: z-score
// no unit, no text: just the number

Please review the entries below; each comes with its answer.
Ask: Report measured z-score; entry is `COCCn1c(C(=O)N(C)C)cc2c1C[C@H]1CN(C(=O)c3ccccc3)[C@@](Cc3ccc(F)cc3)(C(=O)OC)[C@@H]21`
Reply: -0.34

Ask: Give the reported value of z-score for this record: CCCCCCCCCCC(O)C1C=CC2C(=O)N(c3ccccc3)C(=O)C2N1Nc1ccc([N+](=O)[O-])cc1 (configuration not stated)
Reply: 2.56

Ask: Return value of z-score for input CC1CC/C=C\[C@H]2OC34C=CCN(c5ccc6ccccc6c5)C(=O)[C@H]3N(CCCCCO)C(=O)[C@@H]4C2C(=O)O1 (some centres not stated) , no commentary.
Reply: 0.222

Ask: Output measured z-score for this item: C=CCC(OC(C)=O)[C@@H]1[C@@H](N(Cc2ccc(-c3cccc(C(F)(F)F)c3)o2)C(=O)c2ccc(C)cc2)c2cc(OCCCO)ccc2N1C(=O)c1ccc2ccccc2n1 (some centres not stated)
Reply: 0.435

Ask: For the compound Cc1cc(C)c(C(O)C2C=CC3C(=O)NC(=O)C3N2Nc2ccccn2)c(C)c1 (configuration not stated) , give its measured z-score value.
Reply: 0.742

More entries:
Ask: Return value of z-score for input `CO[C@H]1O[C@H](CO)[C@@H](OC(=O)Nc2ccccc2-c2ccccc2)[C@H](OC(=O)Nc2ccccc2-c2ccccc2)[C@H]1OC(=O)Nc1ccccc1-c1ccccc1` , no commentary.
Reply: 1.27

Ask: Answer with the recorded z-score of `O=C1C[C@@](C(=O)O)(c2ccc([N+](=O)[O-])cc2)[C@@H](c2ccc(CO)cc2I)N1C1CCCCC1` only.
Reply: 2.77

====

Test: budding yeast growth modifiers under rapamycin – strain BY4716, OD600, 96 h, primary screen (AID 1091)
Conditions: S. cerevisiae BY4716 + rapamycin, higher = more signal, called active from +8 up or from −8 down
quantity.kind: z-score
Lab note: jot the number down without any unit.

Below, each entry is followed by its recorded z-score result.
Ask: Kindly indicate its recorded z-score. Item: CCN(CC)c1ccc(N2CC=CC34O[C@@H]5/C=C\CCC(C)OC(=O)C5[C@H]3C(=O)N(CCCCCCO)[C@@H]4C2=O)cc1 (some centres not stated)
Reply: 0.252

Ask: Hello, please tell me recorded z-score for this one: `COCCOC(=O)N1C(=O)[C@@]2(c3cc(C#CC4(O)CCCCCC4)ccc31)[C@H](c1ccc(O)cc1)N1[C@H](c3ccccc3)[C@H](c3ccccc3)OC(=O)[C@H]1[C@@H]2C(=O)N1CCc2cc(OC)c(OC)cc2C1`
Reply: -0.494

Ask: Return z-score (reported value) for this compound: `O=C1c2ccccc2[C@](Cc2ccccc2I)(C(=O)O)[C@H](c2ccc(CO)cc2)N1Cc1ccccc1C(F)(F)F`
Reply: 0.0262

Ask: Please give the documented z-score of `NC(=O)[C@]1(Cc2ccccc2)N=C(c2ccc(OCCCO)cc2)O[C@@H]1c1ccccc1`
Reply: -0.314

Ask: Please look at this compound and report its z-score: CC(C)(C)OC(=O)CC[C@]1(C(=O)NCC(O)CO)N=C(c2ccc(OCCCO)cc2)O[C@H]1c1ccccc1CN=[N+]=[N-] (some centres not stated)
Reply: -0.859

Ask: Let me know recorded z-score for `C=CCN1C(=O)[C@@]2(O[C@@H](CCO)[C@H]([Si](C)(C)c3ccc(OC)cc3)[C@H]2C)c2cc(N3C(=O)COc4ccccc43)ccc21` , thanks.
Reply: 35.4

Next:
Ask: Report z-score, nothing else, for this compound: CN1C(=O)C2C=CC(C(O)C3=C[C@H]4C[C@@H](C3)C4(C)C)N(Nc3ccc([N+](=O)[O-])cc3[N+](=O)[O-])C2C1=O (some centres not stated)
Reply: 1.96

====

# key: entry, value: composite z-score
Test system: XIP peptide (Xip251-270) binding
Assay: XIP fragment 251-270 binding compounds – biochemical, small-molecule microarray, fluorescence 635/667 nm, 0.1 µg/mL protein, primary screen (AID 1182)
Settings: fluorescent protein binding, 635 nm, higher = more signal, called active from +8 up or from −8 down
Answer with the value's number alone.

The cases that follow already have their composite z-score on record.
Ask: Complete the entry with composite z-score for O=P(NCC1(CC2(c3ccccc3)CO2)CC1)(c1ccccc1)c1ccccc1 (stereo not given)
Reply: 0.588

Ask: Item `C=C(CCCC)/C(=C/C[C@H](OC(C)=O)c1ccc(CO)o1)c1cc(C(=O)OC)ccc1OC` : provide composite z-score
Reply: 0.485

Ask: Provide measured composite z-score value, entry: `CC(C)[C@H]1COC(=O)N1C(=O)[C@H]1[C@@H](c2ccccc2)N(c2ccccc2)O[C@@H]1C`
Reply: 0.223

Ask: Give the reported composite z-score for this compound. `COCCCNC(=O)[C@@]1(Sc2ccc(C)cc2)CC(=O)N(Cc2ccccc2)[C@@H]1c1ccc(CO)cc1`
Reply: -0.496

Ask: Let me know recorded composite z-score for `O=C1[C@H]2C=C(Br)[C@H](C[C@@H]2OCCOCCO)[C@@]12CO2` , thanks.
Reply: -0.0844

Ask: Give composite z-score for the following compound: `COC(=O)c1c2oc(c1C(=O)OC)C(=O)N[C@H](Cc1ccccc1)Cn1nncc1C1(CCCCC1)NC(=O)N[C@H](CO)CC2`
Reply: 0.152

Next:
Ask: // Input: `COCCOC(=O)N1C(=O)[C@@]2(c3cc(C#CC4=CCCCC4)ccc31)[C@H](c1ccc(OCCO)cc1)N1[C@H](c3ccccc3)[C@H](c3ccccc3)OC(=O)[C@H]1[C@@H]2C(=O)Nc1nc2ccccc2s1` . Output its composite z-score only.
Reply: -0.166

Ask: Consider the compound `COC(=O)[C@@]1(Cc2ccc(OC)cc2)[C@H]2c3cc(C(=O)N4CCCC4)n(CCc4ccccn4)c3C[C@H]2CN1C(=O)c1ccccc1` and give its recorded composite z-score.
Reply: 0.679

Ask: Give recorded composite z-score. `Cc1ccc(S[C@]2(C(=O)NCCCN(C)C)CC(=O)N(Cc3ccccc3)[C@@H]2c2ccc(CO)cc2)cc1`
Reply: -0.712

Ask: Return reported composite z-score. Input compound: `C=C(C(=O)CC[C@@H](OC(=O)c1cccnc1)c1ccc(OCCO)cc1)C(C)C`
Reply: 1.15
